Give measured self-cleavage for each item. Keep answers brief.
B1: Twister Ribozyme (parent)
chain: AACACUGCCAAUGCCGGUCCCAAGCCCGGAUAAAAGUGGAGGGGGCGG

- Variants of: B1
- METHOD DESCRIPTION: self-cleavage, relative activity (ratio to wild type); higher = more cleavage; co-transcriptional
Number only, no unit.

Q: I have this variant here, AACACUGCCAAUGCCGGUCCCGAGCCAGGAUAAAAGUGGAGGGGGCGG , and I need its recorded self-cleavage.
Ans: 0.0974

Q: I have this variant here, AACACUGCCAAUGGCGGUCGCAAGCCCGGAUAAAAGUGGAGGGGGCGG , and I need its recorded self-cleavage.
Ans: 0.111

Q: I have this variant here, AACACAGCCAAUGCCGGUCCCAAGCCCGGUUAAAAGUGGAGGGGGCGG , and I need its recorded self-cleavage.
Ans: 0.981

Q: I have this variant here, AACACUGCCACUGCCGGUCCCAAGCCCGGAUAAAAGUGGAGGGGGAGG , and I need its recorded self-cleavage.
Ans: 0.908

Q: I have this variant here, AACACUGCCAAUGCCGGUCCCAAGCCCGGAUAAAAGUGGAUGGGGUGG , and I need its recorded self-cleavage.
Ans: 0.68
